Listing of recorded pEC50 by entry.
- assay target: human TLR7 (hTLR7) (Homo sapiens)
- Sequence (Q9NYK1 27-1049): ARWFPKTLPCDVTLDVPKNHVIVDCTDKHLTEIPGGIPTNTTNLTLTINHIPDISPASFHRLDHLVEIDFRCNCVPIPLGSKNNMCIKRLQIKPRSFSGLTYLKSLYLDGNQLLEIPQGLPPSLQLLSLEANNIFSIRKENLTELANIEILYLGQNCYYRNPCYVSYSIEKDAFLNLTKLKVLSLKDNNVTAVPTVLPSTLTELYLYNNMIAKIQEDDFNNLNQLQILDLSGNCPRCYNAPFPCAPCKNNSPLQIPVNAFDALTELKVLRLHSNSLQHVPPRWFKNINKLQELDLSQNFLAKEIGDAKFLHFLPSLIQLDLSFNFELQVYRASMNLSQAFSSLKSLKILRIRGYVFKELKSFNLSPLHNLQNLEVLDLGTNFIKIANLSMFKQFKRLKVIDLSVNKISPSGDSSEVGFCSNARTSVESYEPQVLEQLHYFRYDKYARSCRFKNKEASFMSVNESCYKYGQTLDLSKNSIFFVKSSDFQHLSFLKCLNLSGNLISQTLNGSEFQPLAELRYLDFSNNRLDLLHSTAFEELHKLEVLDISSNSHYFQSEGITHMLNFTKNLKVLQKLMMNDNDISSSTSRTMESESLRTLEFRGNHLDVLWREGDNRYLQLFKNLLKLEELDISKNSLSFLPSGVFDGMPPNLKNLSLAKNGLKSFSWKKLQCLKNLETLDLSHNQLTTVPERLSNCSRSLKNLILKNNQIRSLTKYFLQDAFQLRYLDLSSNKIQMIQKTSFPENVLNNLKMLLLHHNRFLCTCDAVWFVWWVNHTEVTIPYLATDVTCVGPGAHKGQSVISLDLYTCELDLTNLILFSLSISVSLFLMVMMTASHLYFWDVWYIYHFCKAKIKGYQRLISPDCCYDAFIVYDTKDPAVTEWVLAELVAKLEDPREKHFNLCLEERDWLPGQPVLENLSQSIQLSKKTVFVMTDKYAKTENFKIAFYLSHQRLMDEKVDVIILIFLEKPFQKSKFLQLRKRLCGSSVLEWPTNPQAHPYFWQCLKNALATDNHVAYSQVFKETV
- method summary: Human TLR7 agonist activity assay (HEK-Blue TLR7 SEAP reporter)
- details: HEK-Blue TLR7 cells, 18 h incubation, Quanti-Blue, OD 620 nm, some values average of multiple measurements
- Procedure: This procedure describes a method for assaying human TLR7 (hTLR7) and human TLR8 (hTLR8) agonist activity of the compounds disclosed herein. HEK-Blue™ TLR7 cells were added to each well of a 384-well tissue-culture plate (15,000 cells per well) and incubated 16-18 h at 37° C., 5% CO2. Compounds (100 nL) were dispensed into wells containing the HEK-Blue™ TLR cells and the treated cells were incubated at 37° C., 5% CO2. […] SLAP levels were measured using an Envision plate reader (OD=620 nm). […]
pEC50: −log10 of the molar value.
measurement name: pEC50

[
  {
    "compound": "CCCCN(CCO)c1nc(N)nc2cn(Cc3ccc(CN[C@H]4C[C@H](OC)C4)c4oc(C)nc34)nc12",
    "experimental result": 6.36
  },
  {
    "compound": "CCCCN(CCO)c1nc(N)nc2cn(Cc3ccc(CN[C@@H]4CCOC4)n4ncnc34)nc12",
    "experimental result": 6.06
  },
  {
    "compound": "CCCCN(CCO)c1nc(N)nc2cn(Cc3c(OC)cc(CNCCOC)cc3OC)nc12",
    "experimental result": 5.77
  },
  {
    "compound": "CCCCN(CCO)c1nc(N)nc2cn(Cc3cccc4c3OCCN4C(=O)CNC3CCC3)nc12",
    "experimental result": 5.65
  },
  {
    "compound": "CCCCN(CCO)c1nc(N)nc2cn(Cc3ccc(CN[C@H]4CCCN(C)C4)c4cccnc34)nc12",
    "experimental result": 6.23
  },
  {
    "compound": "CCCCN(CCO)c1nc(N)nc2cn(Cc3ccc(CNCCOC)cc3)nc12",
    "experimental result": 6.18
  },
  {
    "compound": "CCCCN(CCO)c1nc(N)nc2cn(Cc3c(F)cc(CNCC(C)(C)O)cc3OC)nc12",
    "experimental result": 6.00
  },
  {
    "compound": "CCCCN(CCO)c1nc(N)nc2cn(Cc3ccc(CNC4CCOCC4)c4scnc34)nc12",
    "experimental result": 6.53
  },
  {
    "compound": "CCCCN(CCO)c1nc(N)nc2cn(Cc3c(F)cc(C4CCNCC4)cc3OC)nc12",
    "experimental result": 6.13
  },
  {
    "compound": "CCCCN(CCO)c1nc(N)nc2cn(Cc3ccc(CNC4CCOC(C)(C)C4)cc3OC)nc12 (single isomer, unassigned) [Compound 111]",
    "experimental result": 6.18
  },
  {
    "compound": "CCCCN(c1nc(N)nc2cn(Cc3ccc(CN4CCCCC4)cc3OC)nc12)C(C)CO (single isomer, unassigned) [Compound 49-2]",
    "experimental result": 6.41
  },
  {
    "compound": "CCCCN(CCO)c1nc(N)nc2cn(Cc3c(F)cc(C4CCN(C5CC6(CCC6)C5)CC4)cc3OC)nc12",
    "experimental result": 6.40
  },
  {
    "compound": "CCCCN(CCO)c1nc(N)nc2cn(Cc3c(F)cc(N4CCC(NC5CC6(COC6)C5)CC4)cc3F)nc12",
    "experimental result": 6.29
  },
  {
    "compound": "CCCCN(CCO)c1nc(N)nc2cn(Cc3ccc(CNC4(C)CC4)cc3OC)nc12",
    "experimental result": 5.81
  },
  {
    "compound": "CCCCN(CCO)c1nc(N)nc2cn(Cc3ccc(CN[C@@H]4CCCN(C(C)=O)C4)c4cccnc34)nc12",
    "experimental result": 5.77
  },
  {
    "compound": "CCCCN(CCO)c1nc(N)nc2cn(Cc3ccc(CNC4CCCOC4)c4scnc34)nc12 (stereo not drawn)",
    "experimental result": 6.21
  },
  {
    "compound": "CCCCNCc1ccc(Cn2cc3nc(N)nc(N(CCO)CCCC)c3n2)c(C(F)F)c1",
    "experimental result": 5.74
  },
  {
    "compound": "CCCCN(CCO)c1nc(N)nc2cn(Cc3c(F)cc(CN[C@@H]4CCOC4)cc3OC)nc12",
    "experimental result": 6.43
  },
  {
    "compound": "CCCCN(CCO)c1nc(N)nc2cn(Cc3ccc(CNC(C)C)cc3)nc12",
    "experimental result": 5.80
  },
  {
    "compound": "CCCCN(CCO)c1nc(N)nc2cn(Cc3ccc(CNC4CCN(CCOC)CC4)c4cccnc34)nc12",
    "experimental result": 5.80
  },
  {
    "compound": "CCCCN(CCO)c1nc(N)nc2cn(Cc3cc(OC)c(C4CCN(C5CC6(COC6)C5)CC4)cc3OC)nc12",
    "experimental result": 5.84
  },
  {
    "compound": "CCCCN(CCO)c1nc(N)nc2cn(Cc3c(F)cc(CNCC(C)(C)C)cc3OC)nc12",
    "experimental result": 5.85
  },
  {
    "compound": "CCCCN(c1nc(N)nc2cn(Cc3ccc(CN[C@@H]4CCOC4)cc3OC)nc12)C(C)CO (stereo partly drawn) [Compound 68]",
    "experimental result": 6.46
  },
  {
    "compound": "CCCCN(CCO)c1nc(N)nc2cn(Cc3ccc(CNC4CCC4)c4oc(C)nc34)nc12",
    "experimental result": 6.00
  },
  {
    "compound": "CCCCN(CCO)c1nc(N)nc2cn(Cc3ccc(CNCCOC)cc3OC)nc12",
    "experimental result": 5.88
  },
  {
    "compound": "COc1cc(CN[C@@H]2CCOC2)ccc1Cn1cc2nc(N)nc(N(CCO)CCCCF)c2n1",
    "experimental result": 5.58
  },
  {
    "compound": "CCCCN(CCO)c1nc(N)nc2cn(Cc3ccc(CNC4CCC4)cc3OC)nc12",
    "experimental result": 5.89
  },
  {
    "compound": "CCCCN(CCO)c1nc(N)nc2cn(Cc3ccc(CN[C@@H]4CCOC4)n4ccnc34)nc12",
    "experimental result": 6.17
  },
  {
    "compound": "CCCCN(CCO)c1nc(N)nc2cn(Cc3ccc(CNC(C)(C)COC)cc3OC)nc12",
    "experimental result": 6.26
  },
  {
    "compound": "CCCCN(CCO)c1nc(N)nc2cn(Cc3c(F)cc(C4CCC(N(C)CCOC)CC4)cc3OC)nc12 (stereo not drawn)",
    "experimental result": 6.56
  },
  {
    "compound": "CCCCN(CCO)c1nc(N)nc2cn(Cc3c(F)cc(C4=CCC(N(CCO)CCO)CC4)cc3OC)nc12 (stereo not drawn)",
    "experimental result": 6.24
  },
  {
    "compound": "CCCCN(CCO)c1nc(N)nc2c(C)n(Cc3ccc(CNC4CCOCC4)cc3OC)nc12",
    "experimental result": 6.83
  },
  {
    "compound": "CCCCN(CCO)c1nc(N)nc2cn(Cc3c(F)cc(CN[C@H]4C[C@H](OC)C4)cc3F)nc12",
    "experimental result": 6.87
  }
]

Values compiled from patent US20250282776A1.
